System: Pseudomonas aeruginosa
Assay: Antibacterial activity against Pseudomonas aeruginosa MTCC 1688 after 24 to 48 hr by serial broth dilution method
Format: functional
PROPERTY_NAME: MIC99 (µg/mL)
Please give a number only; it is taken to be in µg/mL.

In plain terms, O=C(Nn1c(S)nnc1-c1cccc2ccccc12)c1cccc(Cl)c1 has a documented MIC99 of 250

In plain terms, COc1ccccc1C(=O)Nn1c(S)nnc1-c1cccc2ccccc12 has a documented MIC99 of 250

In plain terms, Cc1ccccc1C(=O)Nn1c(S)nnc1-c1cccc2ccccc12 has a documented MIC99 of 100

In plain terms, O=C(Nn1c(S)nnc1-c1cccc2ccccc12)c1ccccc1O has a documented MIC99 of 1000

In plain terms, O=C(Nn1c(S)nnc1-c1cccc2ccccc12)c1ccc2cccc([N+](=O)[O-])c2c1 has a documented MIC99 of 100

In plain terms, O=C(Nn1c(S)nnc1-c1cccc2ccccc12)c1ccc([N+](=O)[O-])cc1 has a documented MIC99 of 25

In plain terms, CC1(C)S[C@@H]2[C@H](NC(=O)[C@H](N)c3ccccc3)C(=O)N2[C@H]1C(=O)O has a documented MIC99 of 100

In plain terms, O=C(Nn1c(S)nnc1-c1cccc2ccccc12)c1ccc(O)cc1 has a documented MIC99 of 100

In plain terms, O=C(Nn1c(S)nnc1-c1cccc2ccccc12)c1ccccc1Cl has a documented MIC99 of 100

In plain terms, O=C(COc1ccc2ccccc2c1)Nn1c(S)nnc1-c1cccc2ccccc12 has a documented MIC99 of 250

In plain terms, O=C(Cc1ccccc1)Nn1c(S)nnc1-c1cccc2ccccc12 has a documented MIC99 of 500

In plain terms, O=C(Nn1c(S)nnc1-c1cccc2ccccc12)c1ccccc1 has a documented MIC99 of 50

In plain terms, O=C(Nn1c(S)nnc1-c1cccc2ccccc12)c1cccc([N+](=O)[O-])c1 has a documented MIC99 of 100
